- SYSTEM NAME: CBX7ChD (Homo sapiens, UniProt O95931)
- Sequence (O95931 11-69 limits assumed): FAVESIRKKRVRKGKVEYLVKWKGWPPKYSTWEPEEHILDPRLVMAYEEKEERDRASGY
I'd appreciate it if you could supply IC50 values for the items below.
Answers are plain numbers, in µM.

COMPOUND | IC50 (µM)
O=C(O)C1=CC(=C(c2ccc(O)c(C(=O)O)c2)c2ccc(O)c(C(=O)O)c2)C=CC1=O | 5.5
Cc1cc(-c2ccc(/N=N/c3c(S(=O)(=O)O)cc4cc(S(=O)(=O)O)cc(N)c4c3O)c(C)c2)ccc1/N=N/c1c(S(=O)(=O)O)cc2cc(S(=O)(=O)O)cc(N)c2c1O | 7.5
Cc1cc(-c2ccc(/N=N/c3ccc4c(S(=O)(=O)O)cc(S(=O)(=O)O)c(N)c4c3O)c(C)c2)ccc1/N=N/c1ccc2c(S(=O)(=O)O)cc(S(=O)(=O)O)c(N)c2c1O | 3.9

Attention now shifts to the item below.
Please fill in: IC50 reported for O=C(O)c1cc(O)c2c(c1)[C@H]([C@H]1c3cc(C(=O)O)cc(O)c3C(=O)c3c(O[C@@H]4O[C@H](CO)[C@@H](O)[C@H](O)[C@H]4O)cccc31)c1cccc(O[C@@H]3O[C@H](CO)[C@@H](O)[C@H](O)[C@H]3O)c1C2=O [Sennoside A] = 33.3
